molecular target: CDK2/CycE (Homo sapiens); construct: GST; test: CDK2/CycE high ATP kinase assay (TR-FRET); conditions: 2 mM ATP, Method 2b
pIC50: −log10 of the molar value.
quantity: pIC50

[A] CSCc1cc2cc(c1)OC(C)CCCNc1cc(ccc1F)-c1nc(ncc1F)N2 (racemic)
[B] CS(=N)(=O)Cc1cc2cc(c1)OCCCCNc1cc(ccc1F)-c1nc(ncc1F)N2 (single isomer, unassigned) [Example 10]
[C] CC(C)(C)OC(=O)N=S(C)(=O)Cc1cc2cc(c1)OCCCCNc1cc(ccc1F)-c1nc(ncc1F)N2 (racemic)
[D] CC1CCCNc2cc(ccc2F)-c2nc(ncc2F)Nc2cc(CS(C)(=O)=O)cc(c2)O1 (racemic)
## Task Descending sort on pIC50 required. Use the labels to give the ranking in the order requested.
## Result B, D, C, A
(B: 6.89, D: 6.33, C: 6.07, A: 5.53)

[1] CC(C)(C)OC(=O)N=S(C)(=O)Cc1cc2cc(c1)OCCCCCNc1cc(ccc1F)-c1nc(ncc1F)N2 (racemic)
[2] CS(=N)(=O)Cc1cc2cc(c1)OCCCNc1cc(ccc1F)-c1nc(ncc1F)N2 (racemic)
## Task Please indicate which item has the smaller measured pIC50: 1 versus 2 Mark your selection by writing its label.
## Result 1
(1: 5.44, 2: 6.08)
